Test system: SW-620 colon
testProtocol: NCI tumour cell line growth inhibition, 48 h
Listed compounds paired with reported TGI
Numbers only; they are read as µM.

{"compound": "CCCCCCCCNc1cc2c3c(c1)CCCN3CCC2", "targetUnderTest": "SW-620 colon", "unitsText": "µM", "endpointResult": 13.3}
{"compound": "C=C1C(=O)O[C@H]2[C@H]1CC/C(CNC(=O)/C=C/c1cc(OC)c(OC)c(OC)c1)=C\\CC[C@@]1(C)O[C@@H]21", "targetUnderTest": "SW-620 colon", "unitsText": "µM", "endpointResult": 2.49}
{"compound": "COc1ccc(/C=C2\\CCC(CNc3ccc(S(N)(=O)=O)cc3)C2=O)cc1 (centres undefined)", "targetUnderTest": "SW-620 colon", "unitsText": "µM", "endpointResult": 19.3}

As a next step, examine the compound that follows.
stdin: Quick one: TGI of "COc1ccc(-c2nn(-c3cccc(Cl)c3)cc2-c2cc(-c3cccs3)[nH]c(=S)n2)cc1" ?
stdout: 22.3
